These measurements were taken from ChEMBL document CHEMBL3632498.

# assay-system: Signal transducer and activator of transcription 3 (Homo sapiens) (UniProt P40763)
# Sequence (P40763 whole entry): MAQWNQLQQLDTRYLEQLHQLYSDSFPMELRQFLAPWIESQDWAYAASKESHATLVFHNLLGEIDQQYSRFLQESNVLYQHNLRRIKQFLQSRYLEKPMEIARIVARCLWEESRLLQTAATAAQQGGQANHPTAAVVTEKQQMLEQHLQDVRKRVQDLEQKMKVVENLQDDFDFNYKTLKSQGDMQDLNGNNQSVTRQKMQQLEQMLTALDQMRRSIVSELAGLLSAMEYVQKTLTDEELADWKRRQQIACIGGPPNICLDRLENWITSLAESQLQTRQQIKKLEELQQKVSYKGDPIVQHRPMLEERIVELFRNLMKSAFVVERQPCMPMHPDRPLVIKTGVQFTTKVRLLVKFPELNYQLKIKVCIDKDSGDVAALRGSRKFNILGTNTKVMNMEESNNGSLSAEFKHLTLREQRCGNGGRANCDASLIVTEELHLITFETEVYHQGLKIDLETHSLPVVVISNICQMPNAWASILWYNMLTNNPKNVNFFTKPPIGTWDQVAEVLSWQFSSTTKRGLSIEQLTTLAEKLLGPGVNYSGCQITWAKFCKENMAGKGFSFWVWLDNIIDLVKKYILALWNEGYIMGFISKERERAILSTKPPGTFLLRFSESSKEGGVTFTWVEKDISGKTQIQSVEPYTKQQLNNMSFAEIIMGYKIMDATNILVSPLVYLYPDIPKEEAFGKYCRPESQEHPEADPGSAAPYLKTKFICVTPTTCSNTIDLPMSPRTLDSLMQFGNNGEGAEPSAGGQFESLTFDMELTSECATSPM
# experiment-notes: Inhibition of STAT3 transcriptional activity in human oncostatin M-stimulated HeLa cells at 10 uM after 24 hrs by luciferase reporter gene assay
# Type: cell-based
Activity calls are given as the source filed them. No cut-off for these calls is given here.
Can you answer with just one of these options? YES for active, NO for inactive

compound	assigned-label
COc1ccc(CC(=O)c2ccc3c(c2OC)C=CC(C)(C)O3)cc1OC	NO
COc1ccc(C(C)C(=O)c2ccc3c(c2OC)C=CC(C)(C)O3)cc1OC (centres undefined)	NO
C=C(C(=O)c1ccc2c(c1OC)C=CC(C)(C)O2)c1ccc(OC)c(OC)c1	YES

Input line: Answer briefly: the call reported for C=C(c1ccc(OC)c(OC)c1)C(O)c1ccc2c(c1OC)C=CC(C)(C)O2 (centres undefined) in this assay.
Output line: NO
